Molecular target: PI3Kα (Homo sapiens (Human), UniProt P42336)
Sequence (P42336 whole entry): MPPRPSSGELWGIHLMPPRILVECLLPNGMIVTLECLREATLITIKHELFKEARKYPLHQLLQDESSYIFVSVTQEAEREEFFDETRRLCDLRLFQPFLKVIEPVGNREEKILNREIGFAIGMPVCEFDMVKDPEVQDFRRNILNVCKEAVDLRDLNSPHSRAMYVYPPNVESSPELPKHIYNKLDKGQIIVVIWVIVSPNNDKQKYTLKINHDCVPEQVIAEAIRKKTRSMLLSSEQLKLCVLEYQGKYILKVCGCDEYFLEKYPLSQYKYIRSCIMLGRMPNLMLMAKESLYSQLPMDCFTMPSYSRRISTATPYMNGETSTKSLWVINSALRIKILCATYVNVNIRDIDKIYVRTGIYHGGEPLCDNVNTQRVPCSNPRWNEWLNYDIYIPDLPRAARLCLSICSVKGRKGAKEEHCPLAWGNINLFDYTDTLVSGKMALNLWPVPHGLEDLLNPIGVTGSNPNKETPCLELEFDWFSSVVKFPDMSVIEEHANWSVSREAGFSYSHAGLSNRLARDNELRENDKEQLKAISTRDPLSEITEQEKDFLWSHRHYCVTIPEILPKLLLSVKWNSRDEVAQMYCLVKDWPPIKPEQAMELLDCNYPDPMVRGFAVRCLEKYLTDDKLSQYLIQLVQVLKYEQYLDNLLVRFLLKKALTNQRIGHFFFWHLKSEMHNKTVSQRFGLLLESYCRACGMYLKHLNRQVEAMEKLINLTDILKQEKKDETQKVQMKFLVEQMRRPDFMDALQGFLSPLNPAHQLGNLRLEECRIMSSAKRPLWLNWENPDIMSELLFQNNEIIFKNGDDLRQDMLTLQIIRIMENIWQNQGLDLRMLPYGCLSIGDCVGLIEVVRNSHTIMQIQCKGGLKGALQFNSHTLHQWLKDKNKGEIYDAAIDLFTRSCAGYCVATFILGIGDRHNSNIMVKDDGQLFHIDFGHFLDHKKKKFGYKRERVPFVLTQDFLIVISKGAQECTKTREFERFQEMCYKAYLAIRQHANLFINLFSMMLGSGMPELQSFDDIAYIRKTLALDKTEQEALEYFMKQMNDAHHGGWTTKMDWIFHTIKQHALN
Sequence (P27986 whole entry partner): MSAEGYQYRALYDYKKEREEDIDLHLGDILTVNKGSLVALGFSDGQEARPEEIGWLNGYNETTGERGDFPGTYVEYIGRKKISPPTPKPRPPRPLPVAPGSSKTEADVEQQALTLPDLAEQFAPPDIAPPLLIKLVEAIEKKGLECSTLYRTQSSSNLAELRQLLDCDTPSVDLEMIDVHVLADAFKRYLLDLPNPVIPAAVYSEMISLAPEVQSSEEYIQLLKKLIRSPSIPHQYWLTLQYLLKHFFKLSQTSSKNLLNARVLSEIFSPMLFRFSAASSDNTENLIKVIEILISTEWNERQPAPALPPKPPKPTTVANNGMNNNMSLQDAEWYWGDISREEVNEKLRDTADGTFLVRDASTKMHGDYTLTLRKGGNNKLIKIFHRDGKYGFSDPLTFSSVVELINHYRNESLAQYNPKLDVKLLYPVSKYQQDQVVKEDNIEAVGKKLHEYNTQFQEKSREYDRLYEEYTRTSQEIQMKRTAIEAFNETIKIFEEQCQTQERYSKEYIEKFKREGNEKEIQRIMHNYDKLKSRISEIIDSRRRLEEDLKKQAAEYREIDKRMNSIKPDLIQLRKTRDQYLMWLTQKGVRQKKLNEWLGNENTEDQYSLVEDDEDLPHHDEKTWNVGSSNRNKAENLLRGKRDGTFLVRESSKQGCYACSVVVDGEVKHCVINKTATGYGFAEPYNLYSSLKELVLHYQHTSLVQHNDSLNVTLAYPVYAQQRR
Conditions: read-out: PI3Kα AlphaScreen ® Ki
REPORTED_ENDPOINT: Ki (nM)

- COc1ccc(Nc2nc3ccccc3cc2-c2nc(C)nc3[nH]cnc23)cn1 [Example 113]: 38
- COc1ncc(Nc2ncccc2-c2nc(C)nc3[nH]cnc23)cn1 [Example 66]: 62
- COc1ncc(Nc2nc(CN3CCOCC3)ccc2-c2nc(C)nc(N)n2)cc1F [Example 198]: 276
- COc1ncc(Nc2ncc([C@@H](C)N3CCN(S(C)(=O)=O)CC3)cc2-c2cc(N)nc(C)n2)cc1F [Example 305]: 2
- COc1ncc(Nc2nc(-c3cccnc3)ccc2-c2nc(C)nc(N)n2)cc1F [Example 255]: 4
- COc1ccc(Nc2ncc(-c3ccccn3)cc2-c2nc(C)nc(N)n2)cn1 [Example 172]: 6

A: COc1ncc(Nc2ncc([C@H](C)N3CCOCC3)cc2-c2cc(N)nc(C)n2)cc1F [Example 275]
B: Cc1nc(N)nc(-c2cc([C@@H](C)N3CCN(S(C)(=O)=O)CC3)cnc2Nc2cc(F)c3cccnc3c2)n1 [Example 287]
Which of these two has the smaller recorded Ki: A or B ? Answer format: the label of the selected item.
B

###

System: phosphorylation of Akt at Serine 473 in U87 MG cells
Test: cells
Settings: Homo sapiens, U-87 MG, 2 h, read-out: U87Cell IC50, pAkt (Ser 473), U87 MG cells, two hours with compound
REPORTED_ENDPOINT: IC50 (nM)

Recorded IC50, per entry:
• COc1ccc(Nc2ncc(C(O)c3ccc(S(C)(=O)=O)cc3)cc2-c2nc(C)nc3[nH]cnc23)cn1 (centres unmarked) [Example 139] = 185
• Cc1nc(N)cc(-c2nc3ccccc3nc2Nc2cccc3[nH]ncc23)n1 [Example 180] = 1570
• COc1ccc(Nc2ncc(N3CCN(S(C)(=O)=O)CC3)cc2-c2nc(C)nc3[nH]cnc23)cn1 [Example 99] = 204
• Cc1nc(N)nc(-c2cc(C(C)(C)O)cnc2Nc2cncc(S(C)(=O)=O)c2)n1 [Example 355] = 1160
• COc1ccc(Nc2nc(N)ncc2-c2nc(C)nc(N)n2)cn1 [Example 118] = 172

I: COc1ccc(Nc2ncc(C(C)(O)C(F)(F)F)cc2-c2nc(C)nc(N)n2)cn1 (centres unmarked) [Example 320]
II: COc1ncc(Nc2ncc(C(C)N3CCN(C(=O)N(C)C)CC3)cc2-c2nc(C)nc(N)n2)cc1F (centres unmarked) [Example 294]
Param pair: I , II . Output: the one whose IC50 is numerically greater. Your answer should be the label attached to the chosen record.
II

1: COc1ccc(Nc2ncc(C(C)(C)N3CCN(S(C)(=O)=O)CC3)cc2-c2nc(C)nc(N)n2)cn1 [Example 279]
2: COc1ccc(Nc2ncc(CN3CC4(C3)NC(=O)NC4=O)cc2-c2nc(C)nc(N)n2)cn1 [Example 230]
3: COc1ccc(Nc2ncc(OC(F)F)cc2-c2nc(C)nc(N)n2)cn1 [Example 262]
4: CC(=O)Nc1cc(-c2cnccc2Nc2cccc3[nH]ccc23)nc(C)n1 [Example 108]
5: CCc1cnc(Nc2ccc(OC)nc2)c(-c2nc(C)nc3[nH]cnc23)c1 [Example 74]
Hello, I need these entries ordered by IC50, highest reading first. Thanks! Answer by listing the labels in the order asked for.
2, 4, 3, 5, 1

P: COc1ncc(Nc2ncc(CN3CCOC[C@@H]3C)cc2-c2nc(C)nc(N)n2)cc1F [Example 315]
Q: COc1ccc(Nc2ncc(CNCc3ccncc3)cc2-c2nc(C)nc3[nH]cnc23)cn1 [Example 137]
Returns: the label, P or Q , whose recorded IC50 is the lower number. // output: label of the selected item
P

###

Tested on: ProfilerPro Kinase Selectivity Assay Kit kinases
Assay type: biochemical
Settings: TAK1; 1 μM compound concentration
REPORTED_ENDPOINT: POC (Percent of control) TAK1 (POC)

* CCc1cnc(Nc2ccc(OC)nc2)c(-c2nc(C)nc3[nH]cnc23)c1 | 98
* COc1ccc(Nc2ncc(Cc3ccc(S(C)(=O)=O)cc3)cc2-c2nc(C)nc3[nH]cnc23)cn1 | 115
* Cc1nc(-c2cccnc2Nc2cccc3[nH]ncc23)c2nc[nH]c2n1 | 97
* c1cnc(Nc2cccc3[nH]ncc23)c(-c2ncnc3[nH]cnc23)c1 | 97
* c1cnc(Nc2cccc3[nH]ccc23)c(-c2ncnc3[nH]cnc23)c1 | 90
* Cc1cnc(Nc2cccc3[nH]ncc23)c(-c2nc(C)nc(N)n2)c1 | 106
* Cc1nc(N)nc(-c2cccnc2Nc2cccc(O)c2)n1 | 102
* Cc1nc(N)cc(-c2cccnc2Nc2cccc3[nH]ncc23)n1 | 102
* Cc1nc(N)nc(-c2cccnc2Nc2cccc3[nH]ccc23)n1 | 99

###

Target: ProfilerPro Kinase Selectivity Assay Kit kinases (Homo sapiens)
Assay type: biochemical
Details: PKD2; 1 μM compound concentration
REPORTED_ENDPOINT: POC (Percent of control) PKD2 (POC)

• c1cnc(Nc2cccc3[nH]ccc23)c(-c2ncnc3[nH]cnc23)c1 = 97
• COc1ccc(Nc2ncccc2-c2ncnc3[nH]cnc23)cn1 = 100
• Cc1nc(N)nc(-c2cc(CN3CCN(S(C)(=O)=O)CC3)cnc2Nc2cccc(O)c2)n1 = 98
• c1cnc(Nc2cccc3[nH]ncc23)c(-c2ncnc3[nH]cnc23)c1 = 97
• Cc1cnc(Nc2cccc3[nH]ncc23)c(-c2nc(C)nc(N)n2)c1 = 113

###

Target: ProfilerPro Kinase Selectivity Assay Kit kinases (Homo sapiens)
Assay type: biochemical
Conditions: cMET; 1 μM compound concentration
REPORTED_ENDPOINT: POC (Percent of control) cMET (POC)

- COc1ccc(Nc2ncc(CN3CCN(C(C)=O)CC3)cc2-c2nc(C)nc3[nH]cnc23)cn1: 102
- COc1ccc(Nc2ncc(Cc3ccc(S(C)(=O)=O)cc3)cc2-c2nc(C)nc3[nH]cnc23)cn1: 94
- Cc1cnc(Nc2cccc3[nH]ccc23)c(-c2nc(C)nc(N)n2)c1: 104
- c1cnc(Nc2cccc3[nH]ncc23)c(-c2ncnc3[nH]cnc23)c1: 104
- c1cnc(Nc2cccc3[nH]ccc23)c(-c2ncnc3[nH]cnc23)c1: 89

###

Biological target: ProfilerPro Kinase Selectivity Assay Kit kinases (Homo sapiens, UniProt Q9P0L2)
Format: biochemical
Details: MARK1; 1 μM compound concentration
REPORTED_ENDPOINT: POC (Percent of control) MARK1 (POC)

- Cc1nc(N)nc(-c2cccnc2Nc2cccc3[nH]ccc23)n1: 109
- CCc1cnc(Nc2ccc(OC)nc2)c(-c2nc(C)nc3[nH]cnc23)c1: 111
- COc1ccc(Nc2ncc(Cc3ccc(S(C)(=O)=O)cc3)cc2-c2nc(C)nc3[nH]cnc23)cn1: 131

a: Cc1nc(N)cc(-c2cccnc2Nc2cccc3[nH]ncc23)n1
b: COc1ccc(Nc2ncccc2-c2nc(C)nc3[nH]cnc23)cn1
Just tell me: smaller POC (Percent of control) MARK1 value, a or b ? Respond with the label that goes with your answer.
a

###

Tested on: phosphorylation of Akt at Serine 473 in U87 MG cells
Experiment: cells
Settings: Homo sapiens, U-87 MG, 2 h, read-out: U87Cell IC50, pAkt (Ser 473), U87 MG cells, two hours with compound
pIC50: −log10 of the molar value.
REPORTED_ENDPOINT: pIC50

• COc1ccc(Nc2ncc(CNCc3ccccn3)cc2-c2nc(C)nc3[nH]cnc23)cn1 = 6.91
• Cc1nc(-c2cc(CO)cnc2Nc2cccc3[nH]ncc23)c2nc[nH]c2n1 = 5.07
• COc1ccc(Nc2ncc(CNc3ccccn3)cc2-c2nc(C)nc3[nH]cnc23)cn1 = 6.65

a: Cc1nc(N)nc(-c2cc(CN3CCN(S(C)(=O)=O)CC3)cnc2Nc2ccc3scnc3c2)n1
b: COc1ccc(Nc2ncc(C3(N4CCN(S(C)(=O)=O)CC4)CC3)cc2-c2nc(C)nc(N)n2)cn1
Sorting ascending by pIC50, which comes first: a or b ? Answer with the label corresponding to your selection.
a
(a: 7.37, b: 7.59)

###

Biological target: PI3Kα (Homo sapiens (Human), UniProt P42336)
Conditions: read-out: PI3Kα AlphaScreen ® Ki
pKi: −log10 of the molar value.
REPORTED_ENDPOINT: pKi

Sample records with pKi:
- COc1ccc(Nc2ncc(CN3CCN(S(=O)(=O)N(C)C)CC3)cc2-c2nc(C)nc3[nH]cnc23)cn1: 8.15
- C=Cc1cnc(Nc2cnc(Cl)c(NS(C)(=O)=O)c2)c(-c2cc(N)nc(C)n2)c1: 7.23
- COc1ncc(Nc2ncc(C(C)N)cc2-c2nc(C)nc(N)n2)cc1F (centres unmarked): 7.16
- COc1ccc(Nc2ncc(CNc3ccncc3)cc2-c2nc(C)nc3[nH]cnc23)cn1: 7.38
- COc1ccc(Nc2nc(-c3ccc(F)cc3)ncc2-c2nc(C)nc(N)n2)cn1: 6.30

a: COc1ccc(Nc2ncc(C(C)c3ccc(S(C)(=O)=O)cc3)cc2-c2nc(C)nc(N)n2)cn1 (centres unmarked)
b: COc1ccc(Nc2ncc(N3CCC[C@H]3CO)cc2-c2nc(C)nc3[nH]cnc23)cn1
Compare the recorded pKi of a and b ; state which is larger. Please indicate the selected item by its label.
a
